- target.desc: SIRT1 (Homo sapiens, UniProt Q96EB6)
- Sequence (Q96EB6 whole entry): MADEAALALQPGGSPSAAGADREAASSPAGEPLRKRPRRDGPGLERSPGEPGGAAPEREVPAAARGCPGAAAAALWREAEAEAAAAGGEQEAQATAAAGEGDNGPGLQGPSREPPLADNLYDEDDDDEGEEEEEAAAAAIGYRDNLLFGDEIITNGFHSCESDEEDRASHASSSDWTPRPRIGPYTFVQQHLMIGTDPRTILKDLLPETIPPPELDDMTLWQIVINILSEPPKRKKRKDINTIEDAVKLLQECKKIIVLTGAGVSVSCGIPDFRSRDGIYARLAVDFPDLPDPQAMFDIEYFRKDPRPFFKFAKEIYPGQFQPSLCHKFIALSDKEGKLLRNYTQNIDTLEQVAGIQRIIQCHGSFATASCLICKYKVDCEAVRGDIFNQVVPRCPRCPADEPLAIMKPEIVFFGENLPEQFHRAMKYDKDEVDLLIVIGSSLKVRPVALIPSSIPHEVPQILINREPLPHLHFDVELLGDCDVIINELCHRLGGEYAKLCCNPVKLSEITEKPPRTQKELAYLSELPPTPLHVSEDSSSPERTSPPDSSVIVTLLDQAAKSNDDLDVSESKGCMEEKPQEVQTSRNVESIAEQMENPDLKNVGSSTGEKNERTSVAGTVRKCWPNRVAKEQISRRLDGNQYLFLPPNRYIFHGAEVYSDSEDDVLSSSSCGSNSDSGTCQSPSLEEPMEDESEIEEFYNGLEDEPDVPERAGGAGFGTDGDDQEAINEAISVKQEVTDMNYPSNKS
- procedure.text: TAMRA based mass spectrometry assay of SIRT1 activity
- Assay type: biochemical
- run.conditions: concentration of test compound giving 150% activation of SIRT1; TAMRA peptide substrate
quantity.measured: TAMRA EC1.5 (μM)

Consider the following illustrative entries.
Cc1cc(-c2ccccc2C(F)(F)F)nn2c(C(=O)Nc3ccccn3)cnc12; A (EC1.5<1 μM)
O=C(Nc1cccc(N2CCOCC2)n1)c1cnc2ccc(-c3ccccc3C(F)(F)F)nn12; A (EC1.5<1 μM)
Cc1cc(NC(=O)c2cnc3ccc(-c4ccccc4C(F)(F)F)nn23)ccn1; A (EC1.5<1 μM)
O=C(Nc1cccnc1)c1cnc2ccc(-c3c(F)cccc3F)nn12; C (EC1.5>25 μM)
CS(=O)(=O)c1cccc(-c2ccc3ncc(C(=O)Nc4ccccn4)n3n2)c1; C (EC1.5>25 μM)
O=C(Nc1cccc(N2CCOCC2)n1)c1cnc2ccc(-c3cccc(Cl)c3F)nn12; A (EC1.5<1 μM)
O=C(Nc1ccc(CN2CCCC2)nc1)c1cnc2ccc(-c3ccccc3C(F)(F)F)nn12; B (EC1.5 1-25 μM)
O=C(Nc1ccncc1)c1cnc2ccc(-c3ccc(F)c(F)c3F)nn12; C (EC1.5>25 μM)
O=C(Nc1cncc(F)c1)c1cnc2ccc(-c3ccccc3C(F)(F)F)nn12; B (EC1.5 1-25 μM)
O=C(Nc1cccnc1)c1cnc2ccc(-c3ccccc3F)nn12; B (EC1.5 1-25 μM)

If you can, please state the reported TAMRA EC1.5 (μM) value of `N#Cc1ccccc1-c1ccc2ncc(C(=O)Nc3cccc(N4CCOCC4)n3)n2n1` .
A (EC1.5<1 μM)

The reported measurements were obtained from patent US9957271B2.
